Source of measurements: PubChem BioAssay (NCATS)

- Test system: DIV30
- assay explanation: qHTS profiling for inhibitors of Plasmodium falciparum proliferation (AID 504749); note: nearly all actives have a fitted effect of over 60% in size
- reported conditions: P. falciparum in erythrocytes, SYBR Green DNA, 72 h; series mostly up to 28.7 µM
Inconclusive results are not listed. Active and inactive are the calls of the source. Calls come from the whole dose curve; as a rule, active = well fitted inhibition curve with a large enough effect; inconclusive = small, poorly fitted or top-dose-only effect; inactive = flat fitted curve, though single readings scatter.
Lab note: assign the record to one of active, inactive

Previously resolved entries follow.
CC(C)(C)CC(C)(C)c1ccc(O)cc1    inactive
CCC(C(N)=O)N1CCCC1=O (configuration not stated)    inactive
CCOC(=O)C1(c2ccccc2)CCN(CCC(C#N)(c2ccccc2)c2ccccc2)CC1    active
CCN(CC)CCOC(=O)C(O)(c1ccccc1)c1ccccc1    inactive
CC1OC(C)OC(C)O1 (configuration not stated)    inactive
CC[C@@H](CO)NC(=O)[C@@H]1C=C2c3cccc4[nH]cc(c34)C[C@H]2N(C)C1    inactive
O=[N+]([O-])c1cc([As](=O)(O)O)ccc1O    active
NCC1(CC(=O)O)CCCCC1    inactive
CC(C)CC(N(C)C)C1(c2ccc(Cl)cc2)CCC1 (configuration not stated)    inactive
CCN(C(C)=O)c1cccc(-c2ccnc3c(C#N)cnn23)c1    inactive

What classification did `Oc1ccccc1-c1ccccc1` end up with in this test? inactive

Each compound tested received a call. Report the one for `OCCOc1ccccc1` . inactive

Look up the recorded call for `CC[N+](CC)(CC)CC` in this test. inactive

---

- reported conditions: Ebola virus entry assay, green fluorescence channel
Measured potencies and affinities stand elsewhere.
rule met if efficacy is below 20%. rule not met if not; exact matches included in rule not met.

CCN(CC)CCN1C(=O)CN=C(c2ccccc2F)c2cc(Cl)ccc21    rule not met
CC(C)OC(=O)C(C)(C)Oc1ccc(C(=O)c2ccc(Cl)cc2)cc1    rule not met
CC(=O)OCC(CCn1cnc2cnc(N)nc21)COC(C)=O    rule met
NC(=O)c1cn(Cc2c(F)cccc2F)nn1    rule met
C[C@H]1O[C@H](O[C@H]2[C@H](O)[C@@H](O)[C@@H](O[C@H]3[C@H](O)[C@@H](O)[C@H](O)O[C@@H]3CO)O[C@@H]2CO)[C@H](O)[C@@H](O)[C@@H]1N[C@H]1C=C(CO)[C@@H](O)[C@H](O)[C@H]1O    rule met

Determine whether this molecule shows efficacy lower than 20% (ties excluded): COC(=O)CCc1ccc(OCC(O)CNC(C)C)cc1 (configuration not stated) rule not met

Confirm or reject: efficacy of `Cc1cccc(Nc2ccncc2S(=O)(=O)NC(=O)NC(C)C)c1` lies strictly below 20% rule met

Does this molecule meet the criterion efficacy < 20%? `Cc1ccsc1C(=CCCN1CCC[C@@H](C(=O)O)C1)c1sccc1C` rule not met

Take the molecule `CC[N+](C)(C)c1cccc(O)c1` and say whether its efficacy is less than 20%. rule met

---

- reported conditions: Ebola virus entry assay, ratio channel
Active and inactive are the calls of the source.
measurement type: AC50

COc1ccccc1OCC(O)CN1CCN(CC(=O)Nc2c(C)cccc2C)CC1 (configuration not stated)    inactive
CNCCCC1c2ccccc2C=Cc2ccccc21    8.91 µM (active)
C[C@H]1c2cccc(O)c2C(O)=C2C(=O)[C@]3(O)C(O)=C(C(N)=O)C(=O)[C@@H](N(C)C)[C@@H]3[C@@H](O)[C@@H]21    20 µM (active)
CCOc1ccc2ccccc2c1C(=O)N[C@@H]1C(=O)N2[C@@H]1SC(C)(C)[C@@H]2C(=O)O    inactive
COc1cc(Nc2c(C#N)cnc3cc(OCCCN4CCN(C)CC4)c(OC)cc23)c(Cl)cc1Cl    1.41 µM (active)
CC(COc1ccccc1)N(CCCl)Cc1ccccc1 (configuration not stated)    17.8 µM (active)
CC(=O)SC[C@@H](C)C(=O)N1CCC[C@H]1C(=O)N[C@@H](Cc1ccccc1)C(=O)O    inactive
CCCCN1C[C@H](O)[C@@H](O)[C@H](O)[C@H]1CO    inactive
COc1ccc([C@@H]2Sc3ccccc3N(CCN(C)C)C(=O)[C@@H]2OC(C)=O)cc1    25.1 µM (active)
CC(=O)Oc1ccccc1C(=O)Nc1ncc([N+](=O)[O-])s1    inactive

For the next question, use this compound.
Indicate the recorded AC50 value for this compound: `CN[C@H]1CC[C@@H](c2ccc(Cl)c(Cl)c2)c2ccccc21` 1.58 µM (active)

---

- assay explanation: Primary qHTS for inhibitors of SARS-S pseudo-typed particle cell entry (AID 1479145); note: nearly all actives have a fitted effect of over 45% in size
- reported conditions: SARS-S pseudotyped particle cell entry, luciferase reporter; series mostly up to 57.1 µM
Inconclusive results are not listed. The source made the active and inactive calls. Calls come from the whole dose curve.
measurement type: outcome

CCCN1C[C@H](CSC)C[C@@H]2c3cccc4[nH]cc(c34)C[C@H]21    inactive
CC(=O)Oc1cc2c(s1)CCN(C(C(=O)C1CC1)c1ccccc1F)C2 (stereo not drawn)    inactive
CCc1c2c(nc3ccc(OC(=O)N4CCC(N5CCCCC5)CC4)cc13)-c1cc3c(c(=O)n1C2)COC(=O)[C@]3(O)CC    inactive

---

- System: CRL-7250
- assay explanation: Cytotoxic Profiling of Annotated Libraries Using Quantitative High-Throughput Screening (AID 1296008); note: nearly all actives have a fitted effect of over 60% in size
- reported conditions: Five cell lines viability, CellTiter-Glo ATP luminescence, 48-72 h
Inconclusive results are not listed. Activity calls are given as the source filed them. Calls come from the whole dose curve; as a rule, active = well fitted inhibition curve with a large enough effect; inconclusive = small, poorly fitted or top-dose-only effect; inactive = flat fitted curve, though single readings scatter.
Respond using exactly one of the listed classes: class 1 for active, class 0 for inactive

Example results:
C[C@@H]1[C@@H](C(=O)C[C@H]2O[C@@H]3O[C@]4(C)CC[C@@H]5[C@H](C)CC[C@@H]([C@H]2C)[C@@]35OO4)O[C@@H]2O[C@]3(C)CC[C@H]4[C@H](C)CC[C@@H]1[C@@]24OO3    class 1
Cc1sc2c(c1C)C(c1ccc(Cl)cc1)=N[C@@H](CC(=O)OC(C)(C)C)c1nnc(C)n1-2    class 1

What outcome does the record of this test show for CCCC(C)(COC(N)=O)COC(=O)NC(C)C (stereo not drawn) ? class 0

---

A collection of compounds and their measured AC50
- reported conditions: Ebola virus entry assay, reporter ratio channel; Channel type: primary
Active and inactive are the calls of the source.

CC(CN(C)C)CN1c2ccccc2CCc2ccccc21 (centres undefined)    6.31 µM (active)
C[C@@H](O)[C@H]1C(=O)N2C(C(=O)O)=C(S[C@@H]3CN[C@H](CNS(N)(=O)=O)C3)[C@H](C)[C@H]12    25.1 µM (active)
CC(=O)[C@]1(O)Cc2c(O)c3c(c(O)c2[C@@H](O[C@H]2C[C@H](N)[C@H](O)[C@H](C)O2)C1)C(=O)c1ccccc1C3=O    12.6 µM (active)
CO[C@]12CC[C@@]3(C[C@@H]1[C@](C)(O)C(C)(C)C)[C@@H]1Cc4ccc(O)c5c4[C@@]3(CCN1CC1CC1)[C@H]2O5    3.16 µM (active)
CN1CCC[C@@H]1CCO[C@](C)(c1ccccc1)c1ccc(Cl)cc1    1.41 µM (active)

Using the record for `CC[C@@]1(O)C(=O)OCc2c1cc1n(c2=O)Cc2cc3c(CN(C)C)c(O)ccc3nc2-1` , state its measured AC50. 7.94 µM (active)

Return value of AC50 for input `Cc1ccc(O)c([C@H](CCN(C(C)C)C(C)C)c2ccccc2)c1` , no commentary. 12.6 µM (active)

// fetch AC50 given entry `COc1cc2ncnc(Nc3ccc(F)c(Cl)c3)c2cc1OCCCN1CCOCC1` 2.51 µM (active)

Read off the recorded AC50 for COC(=O)C1=C(C)NC(C)=C(C(=O)OCCN(C)Cc2ccccc2)C1c1cccc([N+](=O)[O-])c1 (centres undefined) 10 µM (active)

Provide AC50 value for the following compound: `OCCN1CCN(CCCN2c3ccccc3Sc3ccc(Cl)cc32)CC1` 2.24 µM (active)

Look up AC50 of `CNC(=O)c1cc(Oc2ccc(NC(=O)Nc3ccc(Cl)c(C(F)(F)F)c3)cc2)ccn1` and report it. 35.5 µM (active)

Specify reported AC50 for the compound shown: `CN1CCN(C2=Nc3ccccc3Oc3ccc(Cl)cc32)CC1` 31.6 µM (active)

Please look at this compound and report its AC50: `CCCN1CCC[C@@H]2Cc3nc(N)ncc3C[C@H]21` 39.8 µM (active)

Give the reported value of AC50 for this record: `CCOC(=O)Nc1ccc2c(c1)N(C(=O)CCN1CCOCC1)c1ccccc1S2` 39.8 µM (active)

---

- assay explanation: Primary qHTS for inhibitors of nuclear receptor binding SET domain protein 2 (NSD2) in an isogenic RCH-ACV NSD2 p.E1099K mutant (9B) (AID 1645876); note: nearly all actives have a fitted effect of over 70% in size
- reported conditions: RCH-ACV (leukaemia line) NSD2 E1099K (9B) viability, CellTiter-Glo, 72 h; series mostly up to 44.9 µM
Inconclusive results are not listed. Active and inactive are the calls of the source. Calls follow the shape of the dose curve; as a rule, active = well fitted inhibition curve with a large enough effect; inconclusive = small, poorly fitted or top-dose-only effect; inactive = flat fitted curve, though single readings scatter.
Your response should consist of one outcome taken from TRUE = active, FALSE = inactive

Previously resolved entries follow.
CC[N+](CC)(CC)CC    FALSE
CN(C)CCc1ccc(O)cc1    FALSE
C=CCN1CC[C@]23c4c5ccc(O)c4O[C@H]2C(=O)CC[C@@]3(O)[C@H]1C5    FALSE
COc1ccc(C(CN(C)C)C2(O)CCCCC2)cc1 (configuration not stated)    FALSE

Could you please tell me the result logged for `Oc1cc(Cl)ccc1Oc1ccc(Cl)cc1Cl` in this assay? TRUE

Status in this test for `C=C(C)[C@H]1Cc2c(ccc3c2O[C@@H]2COc4cc(OC)c(OC)cc4[C@@H]2C3=O)O1` ? TRUE

Recorded test outcome, item `NP(N)(=O)NC(=O)c1ccc(F)cc1` FALSE
